Form field: TGI (one value per entry).
test system: A549 NSCLC; assay: NCI tumour cell line growth inhibition, 48 h

Answered examples (8):
{"compound": "CC1(C)OC(=O)C=C(O)O1.CC1(C)OC(=O)C=C(O)O1.CCO.Oc1ccc2c(c1)CCC2.[Ti]", "test_result": "> 100 µM"}
{"compound": "N#C/C(=C\\c1ccc(Cl)cc1)n1nnc2cc(F)c(F)cc21", "test_result": "21.5 µM"}
{"compound": "O=C(/C=C/C12c3ccccc3C(c3ccccc31)C1C(=O)NC(=O)C12)c1ccco1 (centres undefined)", "test_result": "10.1 µM"}
{"compound": "C[C@]12CC[C@@H]3c4ccc(OCC(=O)O)cc4CC[C@H]3[C@@H]1CCC2=O", "test_result": "> 100 µM"}
{"compound": "COC1=CC(C)C2C[C@H]3O[C@H](O)C[C@H]4C(C)C(=O)C(O)C([C@@]2(C)C1=O)[C@@]34C (some centres undefined)", "test_result": "> 100 µM"}
{"compound": "CCOC(=O)c1c(-c2ccc(Cl)cc2)c(C#N)c(=S)n(C2OC(CO)C(O)C(O)C2O)c1-c1ccccc1 (centres undefined)", "test_result": "> 100 µM"}
{"compound": "OC1OC(c2ccc[nH]2)C(F)(F)C(F)(F)C1(F)F (centres undefined)", "test_result": "> 100 µM"}
{"compound": "O=S(=O)(NCCNc1cc(-c2cn(-c3ccccc3)nc2-c2cccc(O)c2)ccn1)c1ccc(F)cc1", "test_result": "12.1 µM"}

--- query ---
Challenge: Specify measured TGI for CC(=O)OCCC[C@@H]1C(=C(C)C)CCC2[C@@]1(C)CC[C@@]1(C)C[C@](C)(CCC=C(C)C)CC[C@]21C (some centres undefined) .
Response given: > 100 µM
